The molecules listed here are annotated with their pKi.
Target under test: HCV NS3 protease genotype 3a (3A-1) (Hepatitis C virus genotype 3a, UniProt Q81258)
Test summary: HCV NS3 protease time-resolved fluorescence (TRF) assay, genotype 3a
Assay type: biochemical
Applied conditions: Ki 3a
Please report pKi as the negative decimal logarithm of the molar concentration, giving only the number.

Solved cases below.
Structure string	Measured
C=C[C@@H]1C[C@]1(NC(=O)[C@@H]1C[C@@H]2CN1C(=O)[C@H](C(C)(C)C)NC(=O)O[C@@H]1C[C@H]1CCCCCc1c(nc3ccccc3c1-c1ccccn1)O2)C(=O)NS(=O)(=O)C1(C)CC1	6.89
C=C[C@@H]1C[C@]1(NC(=O)[C@@H]1C[C@@H]2CN1C(=O)[C@H](C1(C)CCCCC1)NC(=O)O[C@@H]1C[C@H]1CCCCCc1c(nc3ccccc3c1OCCN1CCOCC1)O2)C(=O)NS(=O)(=O)C1(C)CC1	8.21

// pKi lookup, key: C=C[C@@H]1C[C@]1(NC(=O)[C@@H]1C[C@@H]2CN1C(=O)[C@H](C(C)(C)C)NC(=O)O[C@@H]1C[C@H]1CCCCCc1c(nc3ccccc3c1OC)O2)C(=O)NS(=O)(=O)C1(C)CC1
8.49

Given C=C[C@@H]1C[C@]1(NC(=O)[C@@H]1C[C@@H]2CN1C(=O)[C@H](C(C)(C)C)NC(=O)O[C@]1(C)C[C@H]1CCCCCc1c(nc3ccccc3c1OCCN1CCOCC1)O2)C(=O)NS(=O)(=O)C1(COC)CC1 , state its recorded pKi.
8.55

* * *

Target under test: HCV genotype 1b (BK) NS3 modified enzyme with a R155K mutation (Hepatitis C virus genotype 1b, UniProt P26663, R1181K)
Construct: HCV genotype 1b (BK) NS3 modified enzyme
Test summary: HCV NS3 protease time-resolved fluorescence (TRF) assay, genotype 1b R155K
Format: biochemical
Applied conditions: Ki 1b R155K, second of two values printed in the cell (not explained)
Text: The HCV NS3 protease inhibitory activity of the present compounds may be tested using assays known in the art. One such assay is HCV NS3 protease time-resolved fluorescence (TRF) assay as described below and in International Patent Application Publication No. WO2006/102087. […] Product fluorescence is detected using either a VICTOR V2 or FUSION fluorophotometer (Perkin Elmer Life and Analytical Sciences) with excitation at 340 nm and emission at 615 nm with a 400 μs delay. […]
Where a name gives a salt, the structure may show the parent alone.
molecules and their reported pKi
Answer as the number alone; pKi is minus log10 of concentration in mol/L.

Please review the entries below; each comes with its answer.
Molecule	pKi
C=C[C@@H]1C[C@]1(NC(=O)[C@@H]1C[C@@H]2CN1C(=O)[C@H](C1(C)CCCCC1)NC(=O)O[C@@H]1C[C@H]1CCCCCc1c(nc3ccccc3c1OCCCN1CCCOCC1)O2)C(=O)NS(=O)(=O)C1(C)CC1 [Example 270]	9.74
C=C[C@@H]1C[C@]1(NC(=O)[C@@H]1C[C@@H]2CN1C(=O)[C@H](C(C)(C)C)NC(=O)O[C@@H]1C[C@H]1CCCCCc1c(nc3ccccc3c1OC1C3COCC1CN(C(=O)OC(C)(C)C)C3)O2)C(=O)NS(=O)(=O)C1(C)CC1 (single isomer, unassigned) [Example 255]	8.66

Quick one: pKi of C=C[C@@H]1C[C@]1(NC(=O)[C@@H]1C[C@@H]2CN1C(=O)[C@H](C1CCCCC1)NC(=O)O[C@@H]1C[C@H]1CCCCCc1c(nc3ccccc3c1OC1CCN(CCF)CC1)O2)C(=O)NS(=O)(=O)C1(C)CC1 [Example 272, formate] ?
9.89

Request the reported pKi associated with C=C[C@@H]1C[C@]1(NC(=O)[C@@H]1C[C@@H]2CN1C(=O)[C@H](C(C)(C)C)NC(=O)O[C@@H]1C[C@H]1CCCCCc1c(nc3ccccc3c1-c1ccncc1)O2)C(=O)NS(=O)(=O)C1(C)CC1 [Example 244]
8.78

For C=C[C@@H]1C[C@]1(NC(=O)[C@@H]1C[C@@H]2CN1C(=O)[C@H](C1CCCCC1)NC(=O)O[C@@H]1C[C@H]1CCCCCc1c(nc3ccccc3c1O[C@@H]1CCN(C(=O)OC(C)(C)C)C[C@@H]1F)O2)C(=O)NS(=O)(=O)C1(C)CC1 [Example 292] , what is its reported pKi?
9.13

I have this molecule here, C=C[C@@H]1C[C@]1(NC(=O)[C@@H]1C[C@@H]2CN1C(=O)[C@H](C(C)(C)C)NC(=O)O[C@@H]1C[C@H]1CCCCCc1c(nc3ccccc3c1OC1CC3CCC(C1)N3)O2)C(=O)NS(=O)(=O)C1(C)CC1 (single isomer, unassigned) [Example 279, trifluoroacetate] , and I need its recorded pKi.
9.84

Any idea what pKi was measured for C=C[C@@H]1CC1(NC(=O)[C@@H]1C[C@@H]2CN1C(=O)[C@H](C1CCCCC1)NC(=O)O[C@@H]1C[C@H]1CCCCCc1c(nc3ccccc3c1OCCCN1CCNCC1)O2)C(=O)NS(=O)(=O)C1(C)CC1 (some centres unmarked) [Example 265] ?
9.96

// pKi lookup, key: C=C[C@@H]1C[C@]1(NC(=O)[C@@H]1C[C@@H]2CN1C(=O)[C@H](C1CCCCC1)NC(=O)O[C@@H]1C[C@H]1CCCCCc1c(nc3ccccc3c1OC1CCCN(C)C1)O2)C(=O)NS(=O)(=O)C1(C)CC1 (some centres unmarked) [Example 291, formate]
10.07
